Property: melting point; scope: individual compounds

>>> value_observed("Nc1cc(C=O)nc(-c2ccc(C(F)(F)F)nc2)c1F")
"166 to 167 °C"
>>> value_observed("C/C=C(\\C)CNc1cccc(-c2ccnc3c(C(=O)c4cccs4)cnn23)c1")
"118 to 120 °C"

Kindly review the next compound as well.
What does the record list as melting point for `C=CCN(C)C(=O)/C=C/CSc1nc(N)cc(Cl)n1` ?
140 to 142 °C

====

Readout: melting point

Worked examples follow.
>>> value_observed("CC1Cc2cc(C(O)C(C)N3CCC(n4c(=O)[nH]c5ccccc54)CC3)ccc2S1 (configuration not stated)")
"220 to 222 °C"
>>> value_observed("CCCN1CCCC2Cc3nc(NC(C)=O)sc3CC21 (configuration not stated)")
"> 200 °C"
>>> value_observed("CCCC(=O)c1cnc2c(O)cccc2c1Nc1ccc(F)cc1C")
"121 to 122 °C"
>>> value_observed("CC(C)(C)c1ccc(C(=O)c2c(N)sc3c2CCN(Cc2ccccc2)C3)cc1")
"124 to 125 °C"

What does the record list as melting point for `[N-]=[N+]=NCc1cc(Cl)c(C(=O)c2ccc(Cl)cc2)c(Cl)c1` ?
50 to 55 °C

What does the record list as melting point for `COc1ccc(COc2ccc(C(=O)N3CCc4cc(/C=C/CN(C)C)ccc43)cc2)cc1` ?
164 to 166 °C
